- System: human glucagon receptor (Homo sapiens (Human))
- Sequence (P47871 26-477): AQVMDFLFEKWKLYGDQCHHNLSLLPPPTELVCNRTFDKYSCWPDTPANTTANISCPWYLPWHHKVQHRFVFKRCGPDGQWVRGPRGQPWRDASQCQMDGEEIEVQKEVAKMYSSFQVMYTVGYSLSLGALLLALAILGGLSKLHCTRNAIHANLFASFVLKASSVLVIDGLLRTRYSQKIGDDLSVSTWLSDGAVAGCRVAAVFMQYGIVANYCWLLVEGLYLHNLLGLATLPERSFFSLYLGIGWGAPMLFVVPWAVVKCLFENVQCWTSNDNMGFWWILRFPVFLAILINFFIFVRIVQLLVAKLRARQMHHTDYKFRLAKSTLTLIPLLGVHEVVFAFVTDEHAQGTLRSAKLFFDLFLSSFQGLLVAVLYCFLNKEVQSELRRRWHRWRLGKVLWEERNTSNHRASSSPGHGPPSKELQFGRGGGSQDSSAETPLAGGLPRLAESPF
- Experiment Notes: Glucagon cAMP Assay (Cisbio cAMP detection)
- Assay type: cell-based
- Test Parameters: CHOK1 cells stably transfected with the human glucagon receptor; block of glucagon induced cAMP production; Kb by modified Cheng-Prusoff equation
Recorded Metric: Kb (nM)

Consider the following illustrative entries.
CCCC(Oc1cc(C)c(-n2cnc(C(F)(F)F)c2)c(C)c1)c1ccc(C(=O)NCCC(=O)O)cc1 (stereo not shown) [Example 141]: 586
CCCC(Nc1ccc(-n2cc(F)cn2)cc1)c1ccc(C(=O)NCCC(=O)O)cc1 (racemic) [Example 63]: 613
Cc1cc(OC(c2ccc(C(=O)NCCC(=O)O)cc2)C2CCC2)cc(C)c1-n1cc(C(F)(F)F)cn1 (single isomer, unassigned) [Example 138]: 40

(P) Cc1cc(C(Nc2ccc(C(=O)NCCC(=O)O)cn2)C2CCCC2)cc(C)c1-n1cc(C(F)(F)F)cn1 (single isomer, unassigned; isomer 1) [Example 170]
(Q) O=C(O)CCNC(=O)c1ccc(C(Nc2ccc(-n3cnc(C(F)(F)F)c3)nc2)C(F)(F)F)cc1 (racemic) [Example 121]
(R) CCCC(Oc1ccc(-n2cnc(C)n2)cc1)c1ccc(C(=O)NCCC(=O)O)cc1 (racemic) [Example 46]
(S) CC1(C)CC(C(Oc2cnc(-n3cc(C(F)(F)F)cn3)nc2)c2ccc(C(=O)NCCC(=O)O)cc2)C1 (single isomer, unassigned; isomer 1) [Example 155]
(T) O=C(O)CCNC(=O)c1ccc(C(Nc2ccc(-n3cc(C(F)(F)F)cn3)nc2)C2CCC2)cc1 (racemic) [Example 106]
Challenge: Sort the 5 compounds by Kb; largest first, smallest last. List the labels, following the order given in the request.
Response given: R, P, Q, S, T
(R: 6890 nM, P: 1300 nM, Q: 764 nM, S: 313 nM, T: 187 nM)

(A) CCCC(Oc1ccc(-n2cc(C(F)(F)F)cn2)cc1)c1ccc(C(=O)NCCC(=O)O)cn1 (racemic) [Example 3]
(B) CCCC(Oc1ccc(-n2ccc(C(C)C)n2)cc1)c1ccc(C(=O)NCCC(=O)O)cc1 (racemic) [Example 27]
(C) CCC[C@@H](Nc1ccc(-n2cc(C(C)(C)C)cn2)nc1)c1ccc(C(=O)NCCC(=O)O)cc1 (single isomer, unassigned) [Example 136]
Challenge: Sort the 3 compounds by Kb; largest first, smallest last. List the labels, following the order given in the request.
Response given: A, B, C
